Listing: zone of inhibition at 200 µg/disc of selected compounds
- Tested on: Candida albicans
- assay_summary: Antimicrobial activity against Candida albicans IFO 0583 at 200 ug/disc after 48 hrs
- Assay type: functional
- cond: IFO 0583, 48 h, read-out: IZ
endpoint_name: zone of inhibition at 200 µg/disc

>>> result("C1C2CC3CC1CC(c1nnc(C45CC6CC(CC(C6)C4)C5)o1)(C2)C3")
"10 mm"
>>> result("O=C(NNC(=S)NC12CC3CC(CC(C3)C1)C2)c1ccc(Br)cc1")
"< 10 mm"
>>> result("Brc1ccc(-c2nnc(C34CC5CC(CC(C5)C3)C4)o2)cc1")
"< 10 mm"
>>> result("Brc1ccc(-c2nnc(NC34CC5CC(CC(C5)C3)C4)s2)cc1")
"< 10 mm"
>>> result("O=[N+]([O-])c1ccc(-c2nnc(C34CC5CC(CC(C5)C3)C4)o2)cc1")
"< 10 mm"
>>> result("O=C(NNC(=S)NC12CC3CC(CC(C3)C1)C2)C12CC3CC(CC(C3)C1)C2")
"16 mm"
>>> result("O=C(NNC(=S)NC12CC3CC(CC(C3)C1)C2)c1cccs1")
"< 10 mm"
>>> result("c1ccc(-c2nnc(C34CC5CC(CC(C5)C3)C4)o2)cc1")
"< 10 mm"
>>> result("Fc1ccc(-c2nnc(C34CC5CC(CC(C5)C3)C4)o2)cc1")
"< 10 mm"

* * *

- Test system: Rattus norvegicus
- assay_summary: Antiinflammatory effect on carrageenan-induced paw oedema Sprague-Dawley rat assessed as reduction of paw oedema at 20 mg/kg, ip
- Assay type: functional
- Parameters: scale not given: the % may be the effect or the level left
- cond: route intraperitoneal
# Criterion met = Activity below 10% (exclusive); Criterion not met = Activity at/above 10%

>>> class_name("c1ccc(-c2nnc(C34CC5CC(CC(C5)C3)C4)o2)cc1")
"Criterion not met"
>>> class_name("COc1ccc(-c2nnc(C34CC5CC(CC(C5)C3)C4)o2)cc1OC")
"Criterion not met"
>>> class_name("O=C(NNC(=S)NC12CC3CC(CC(C3)C1)C2)c1cccs1")
"Criterion met"
>>> class_name("C1C2CC3CC1CC(c1nnc(C45CC6CC(CC(C6)C4)C5)o1)(C2)C3")
"Criterion not met"
>>> class_name("O=C(NNC(=S)NC12CC3CC(CC(C3)C1)C2)c1ccc([N+](=O)[O-])cc1")
"Criterion met"
>>> class_name("Brc1ccc(-c2nnc(NC34CC5CC(CC(C5)C3)C4)s2)cc1")
"Criterion not met"
>>> class_name("O=C(NNC(=S)NC12CC3CC(CC(C3)C1)C2)c1ccc(Cl)cc1")
"Criterion met"
>>> class_name("Fc1ccc(-c2nnc(NC34CC5CC(CC(C5)C3)C4)s2)cc1")
"Criterion not met"
>>> class_name("O=C(NNC(=S)NC12CC3CC(CC(C3)C1)C2)c1ccccc1")
"Criterion met"
>>> class_name("Clc1ccc(-c2nnc(NC34CC5CC(CC(C5)C3)C4)s2)cc1")
"Criterion not met"
>>> class_name("Fc1ccc(-c2nnc(C34CC5CC(CC(C5)C3)C4)o2)cc1")
"Criterion not met"

* * *

- System: Candida albicans
- assay_summary: Antimicrobial activity against Candida albicans IFO 0583 after 48 hrs
- Type: functional
- cond: IFO 0583, 48 h
Listing: MIC of selected molecules
endpoint_name: MIC (µg/mL)

>>> quantitative_readout("C1C2CC3CC1CC(Nc1nnc(C45CC6CC(CC(C6)C4)C5)s1)(C2)C3")
2
>>> quantitative_readout("c1csc(-c2nnc(C34CC5CC(CC(C5)C3)C4)o2)c1")
2
>>> quantitative_readout("O=C(NNC(=S)NC12CC3CC(CC(C3)C1)C2)C12CC3CC(CC(C3)C1)C2")
4
>>> quantitative_readout("Clc1ccccc1C(c1ccccc1)(c1ccccc1)n1ccnc1 [CLOTRIMAZOLE]")
2

* * *

- Test system: Rattus norvegicus
- assay_summary: Antiinflammatory effect on carrageenan-induced paw oedema Sprague-Dawley rat assessed as reduction of paw oedema at 60 mg/kg, ip
- Assay type: functional
- Set-up: scale not given: the % may be the effect or the level left
- cond: route intraperitoneal
endpoint_name: Activity (%)

>>> quantitative_readout("Clc1ccc(-c2nnc(NC34CC5CC(CC(C5)C3)C4)s2)cc1")
37.11
>>> quantitative_readout("c1csc(-c2nnc(NC34CC5CC(CC(C5)C3)C4)s2)c1")
37.52
>>> quantitative_readout("Fc1ccc(-c2nnc(NC34CC5CC(CC(C5)C3)C4)s2)cc1")
39.35
>>> quantitative_readout("O=[N+]([O-])c1ccc(-c2nnc(C34CC5CC(CC(C5)C3)C4)o2)c(Cl)c1")
19.34
>>> quantitative_readout("Fc1ccc(-c2nnc(C34CC5CC(CC(C5)C3)C4)o2)cc1")
38.62
>>> quantitative_readout("O=[N+]([O-])c1cc(-c2nnc(C34CC5CC(CC(C5)C3)C4)o2)cc([N+](=O)[O-])c1")
3.66
>>> quantitative_readout("Brc1ccc(-c2nnc(C34CC5CC(CC(C5)C3)C4)o2)cc1")
13.01
>>> quantitative_readout("Clc1ccc(-c2nnc(C34CC5CC(CC(C5)C3)C4)o2)cc1")
50.71
>>> quantitative_readout("Brc1ccc(-c2nnc(NC34CC5CC(CC(C5)C3)C4)s2)cc1")
14.16
>>> quantitative_readout("COc1ccc(-c2nnc(C34CC5CC(CC(C5)C3)C4)o2)cc1OC")
70.2

* * *

- Tested on: Rattus norvegicus
- assay_summary: Antiinflammatory effect on carrageenan-induced paw oedema Sprague-Dawley rat assessed as reduction of paw oedema at 60 mg/kg, ip
- Type: functional
- Design: scale not given: the % may be the effect or the level left
- cond: route intraperitoneal
endpoint_name: Activity (%)

>>> quantitative_readout("c1ccc(-c2nnc(NC34CC5CC(CC(C5)C3)C4)s2)cc1")
33.53
>>> quantitative_readout("O=C(NNC(=S)NC12CC3CC(CC(C3)C1)C2)C12CC3CC(CC(C3)C1)C2")
10.12
>>> quantitative_readout("C1C2CC3CC1CC(Nc1nnc(C45CC6CC(CC(C6)C4)C5)s1)(C2)C3")
44.14
>>> quantitative_readout("O=[N+]([O-])c1ccc(-c2nnc(C34CC5CC(CC(C5)C3)C4)o2)cc1")
12.08
>>> quantitative_readout("C1C2CC3CC1CC(c1nnc(C45CC6CC(CC(C6)C4)C5)o1)(C2)C3")
71.52
>>> quantitative_readout("c1ccc(-c2nnc(C34CC5CC(CC(C5)C3)C4)o2)cc1")
34.5
>>> quantitative_readout("O=[N+]([O-])c1ccc(-c2nnc(NC34CC5CC(CC(C5)C3)C4)s2)cc1")
10.74
>>> quantitative_readout("c1csc(-c2nnc(C34CC5CC(CC(C5)C3)C4)o2)c1")
63.72

* * *

Listing: zone of inhibition at 200 µg/disc of selected compounds
- Tested on: Escherichia coli
- assay_summary: Antimicrobial activity against Escherichia coli IFO 3301 at 200 ug/disc after 24 hrs
- Assay type: functional
- cond: IFO 3301, 24 h, read-out: IZ
endpoint_name: zone of inhibition at 200 µg/disc (mm)

>>> quantitative_readout("COc1ccc(-c2nnc(C34CC5CC(CC(C5)C3)C4)o2)cc1OC")
12
>>> quantitative_readout("Clc1ccc(-c2nnc(C34CC5CC(CC(C5)C3)C4)o2)cc1")
10

* * *

- Tested on: Escherichia coli
- assay_summary: Antimicrobial activity against Escherichia coli IFO 3301 at 200 ug/disc after 24 hrs
- Assay type: functional
- cond: IFO 3301, 24 h, read-out: IZ
endpoint_name: zone of inhibition at 200 µg/disc (mm)

>>> quantitative_readout("O=C(NNC(=S)NC12CC3CC(CC(C3)C1)C2)c1ccccc1")
16
>>> quantitative_readout("c1ccc(-c2nnc(NC34CC5CC(CC(C5)C3)C4)s2)cc1")
12
>>> quantitative_readout("Fc1ccc(-c2nnc(NC34CC5CC(CC(C5)C3)C4)s2)cc1")
10
>>> quantitative_readout("Clc1ccc(-c2nnc(NC34CC5CC(CC(C5)C3)C4)s2)cc1")
12
>>> quantitative_readout("O=[N+]([O-])c1ccc(-c2nnc(C34CC5CC(CC(C5)C3)C4)o2)c(Cl)c1")
10
>>> quantitative_readout("O=[N+]([O-])c1ccc(-c2nnc(NC34CC5CC(CC(C5)C3)C4)s2)cc1")
17
>>> quantitative_readout("c1csc(-c2nnc(C34CC5CC(CC(C5)C3)C4)o2)c1")
11
>>> quantitative_readout("O=C(NNC(=S)NC12CC3CC(CC(C3)C1)C2)c1ccc([N+](=O)[O-])cc1")
19
>>> quantitative_readout("O=C(NNC(=S)NC12CC3CC(CC(C3)C1)C2)c1cccs1")
10

* * *

Listing: Activity of selected compounds
- Test system: Rattus norvegicus
- assay_summary: Antiinflammatory effect on carrageenan-induced paw oedema Sprague-Dawley rat assessed as reduction of paw oedema at 20 mg/kg, ip
- Type: functional
- Set-up: scale not given: the % may be the effect or the level left
- cond: route intraperitoneal
endpoint_name: Activity (%)

>>> quantitative_readout("c1ccc(-c2nnc(NC34CC5CC(CC(C5)C3)C4)s2)cc1")
19.69
>>> quantitative_readout("Brc1ccc(-c2nnc(C34CC5CC(CC(C5)C3)C4)o2)cc1")
11.6
>>> quantitative_readout("C1C2CC3CC1CC(Nc1nnc(C45CC6CC(CC(C6)C4)C5)s1)(C2)C3")
31.6
>>> quantitative_readout("O=[N+]([O-])c1ccc(-c2nnc(C34CC5CC(CC(C5)C3)C4)o2)cc1")
9.92
>>> quantitative_readout("c1csc(-c2nnc(NC34CC5CC(CC(C5)C3)C4)s2)c1")
15.43
>>> quantitative_readout("O=[N+]([O-])c1ccc(-c2nnc(NC34CC5CC(CC(C5)C3)C4)s2)cc1")
9.11
>>> quantitative_readout("O=[N+]([O-])c1ccc(-c2nnc(C34CC5CC(CC(C5)C3)C4)o2)c(Cl)c1")
19.69
>>> quantitative_readout("O=[N+]([O-])c1cc(-c2nnc(C34CC5CC(CC(C5)C3)C4)o2)cc([N+](=O)[O-])c1")
4.16
>>> quantitative_readout("O=C(NNC(=S)NC12CC3CC(CC(C3)C1)C2)C12CC3CC(CC(C3)C1)C2")
11.34
>>> quantitative_readout("Clc1ccc(-c2nnc(C34CC5CC(CC(C5)C3)C4)o2)cc1")
34.5
>>> quantitative_readout("c1csc(-c2nnc(C34CC5CC(CC(C5)C3)C4)o2)c1")
35.95
